measure-name: melting point

Take a look at these entries with their results.
- molecule: "CCc1cc2c(SCc3ccccc3)ncnc2s1"
  melting point: "54 to 60 °C"
- molecule: "NC(=O)c1csc(-c2cc3c(Oc4ccc(Cl)cc4)cncc3s2)n1"
  melting point: "215 to 218 °C"
- molecule: "CCc1cc2c(Sc3nnc(C)s3)ncnc2s1"
  melting point: "132 to 135 °C"
- molecule: "O=C(Nc1ccc(Cl)cc1)c1cnc2sccc2c1Cl"
  melting point: "199 to 202 °C"
- molecule: "CCOC(=O)C1(CC)Cc2c(Sc3ccc(C)cc3)ncnc2S1 (stereo not shown)"
  melting point: "87.5 to 90 °C"

# melting point lookup, item NC(=O)/C=C/c1cc2c(Oc3ccc(Cl)cc3)cncc2s1
176 to 178 °C

melting point for CSc1nnc(Sc2ncnc3c(C)csc23)s1 ?
163 to 166 °C

Which melting point value belongs to NC(=O)c1cc2c(SC3CCCCC3)cncc2s1 ?
205 to 207 °C

Could you share which melting point value was measured for Nc1nnc(-c2cc3c(Oc4ccc(Cl)cc4)cncc3s2)[nH]1 ?
> 270 °C

Need melting point, item CNC(=O)c1cc2c(Oc3ccc(F)c(F)c3F)cncc2s1
170 to 171 °C

====

Overview of reported inhibition at 1 µM across a group of compounds:
test system: ICAM-1; assay: CAM ELISA: ICAM-1 expression on TNF-stimulated HUVECs; assay type: cell-based; conditions: Homo sapiens, Endothelial cell, 1 μM compound; primary human umbilical vein endothelial cells; compound 24 hours, then TNF 5 ng/mL 6 hours
Numbers only; they are read as %.

In the examples that follow, each entry is paired with its recorded inhibition at 1 µM.
- smiles-representation: "O=C(NCCO)c1cc2c(Oc3ccc(Cl)cc3)cnc(Cl)c2s1"
  observed-result: 68
- smiles-representation: "NC(=O)c1cc2c(Oc3cccnc3)cncc2s1"
  observed-result: 67
- smiles-representation: "Nc1ccc(-c2cc3c(Oc4ccc(Cl)cc4)cncc3s2)cn1"
  observed-result: 71

Please report the recorded inhibition at 1 µM for NC(=O)/C=C/c1cc2c(Oc3ccc(Br)cc3)cncc2s1 .
59

State the recorded inhibition at 1 µM for this entry: CNC(=O)c1cc2c(Oc3ccc(C(F)(F)F)cc3)cncc2s1
69

====

# reported melting point; entries follow

- compound: "NCc1cc2c(Oc3ccc(Cl)cc3)cncc2s1 [Example 256]"
  observed-result: "78.6 to 79.8 °C"

melting point lookup needed for CCC(=NO)c1cc2c(Oc3ccc(Cl)cc3)cncc2s1 [Example 246] , thanks.
195 to 198 °C (dec.)

Look up melting point: Cc1ccc(Sc2cncc3sc(C=NOc4ccccc4)cc23)cc1 [Example 29]
94 to 97 °C

Need melting point, item Clc1ccc(Oc2cncc3sc(C4=NCCO4)cc23)cc1 [Example 296]
158 to 160 °C (dec.)

Need melting point of NC(=O)/C=C/c1cc2c(Oc3ccc(Br)cc3)cncc2s1 [Example 259] , thanks.
195 to 196 °C

# query: melting point of entry FC(F)(F)c1nc(-c2cc3c(Oc4ccc(Cl)cc4)cncc3s2)no1 [Example 284]
52 to 54 °C

Could you share which melting point value was measured for Cc1ccc(Sc2ncnc3c(C)c(C(N)=O)sc23)cc1 [Example 16] ?
243 to 246 °C

What does the data say about its melting point? Entry: CON=Cc1cc2c(Sc3ccc(C)cc3)cncc2s1 [Example 26]
95 to 98 °C

Entry under review: CN(C)C(=O)c1cc2c(Oc3ccc(C(F)(F)F)cc3)cncc2s1 [Example 173] . Reported melting point?
74 to 76 °C

Can you look up the measured melting point of CCc1cc2c(Nc3nnc(C)s3)ncnc2s1 [Example 9] for me?
277 to 280 °C

Requested read-out: melting point. Entry: Clc1ccc(Oc2cncc3sc(-c4ncon4)cc23)cc1 (hydrate or solvate) [Example 287]
151 to 152 °C

Any idea what melting point was measured for NC(=NO)c1cc2c(Oc3ccc(Cl)cc3)cncc2s1 [Example 249] ?
194 to 196 °C

====

measure-name: melting point

The cases that follow already have their melting point on record.
- molecule: "NC(=O)c1cc2c(Oc3ccc(Cl)cc3)c[nH]c(=O)c2s1 [Example 323]"
  melting point: "> 250 °C"
- molecule: "CCOC(=O)c1cnc2sccc2c1Sc1nnc(C)s1 [Example 134]"
  melting point: "93 to 94 °C"
- molecule: "Nc1nc(-c2cc3c(Oc4ccc(Cl)cc4)cncc3s2)no1 (hydrate or solvate) [Example 289]"
  melting point: "268 to 270 °C"
- molecule: "Cn1c(N)nnc1-c1cc2c(Oc3ccc(Cl)cc3)cncc2s1 [Example 283]"
  melting point: "233 to 235 °C"
- molecule: "Cc1ccc(Sc2cncc3sc(C(N)=S)cc23)cc1 [Example 41]"
  melting point: "181 to 183 °C"
- molecule: "Cc1ccc(Sc2cncc3sc(C(=O)NCC(O)CO)cc23)cc1 (centres unmarked) [Example 37]"
  melting point: "120 to 122 °C"
- molecule: "CCOCCOCCOCC1(c2ccc(Oc3cncc4sc(-c5nnc(N)o5)cc34)cc2)CC1 [Example 228]"
  melting point: "113 to 114 °C"
- molecule: "Cc1c(C(N)=O)sc2cncc(Oc3ccc(Br)cc3)c12 [Example 304]"
  melting point: "177 to 178 °C"

Param item = Cc1ccc(Sc2ncnc3c(C)csc23)cc1 [Example 11] ; retrieve measured melting point.
103 to 107 °C

Endpoint output: melting point of NC(=O)c1sc2cncc(Oc3ccc(Cl)cc3)c2c1N [Example 131] . Value?
202 to 204 °C

Dear colleague, I am looking for the recorded melting point of the following molecule: CNC(=O)c1cc2c(Oc3cccc(F)c3F)cncc2s1 [Example 179]
169 to 171 °C

Fill in the blank: the reported melting point of N#Cc1cc2c(Oc3ccc(Cl)cc3)cncc2s1 [Example 248] is ____.
140 to 142 °C

Reported melting point, molecule Cc1ccc(Sc2cncc3sc(C=NOCC(N)=O)cc23)cc1 [Example 31] : ____
152 to 156 °C

Fill blank: measured melting point of the molecule CCc1cc2c(Sc3ccc(C)cc3)ncnc2s1 [Example 2] is ____.
56 to 58 °C

Find the recorded melting point belonging to Cc1ccc(Sc2cncc3sc(C(N)=O)cc23)c(C)c1 [Example 52] and report it.
193 to 195 °C

GET /values?readout=melting point&item= OCc1cc2c(Oc3ccc(Cl)cc3)cncc2s1 [Example 90]
90 to 91 °C

Form field: reported melting point of Cc1ccccc1Sc1cncc2sc(C(N)=O)cc12 [Example 48]
170 to 172 °C

====

Below, each entry is listed with its recorded melting point.

Sample records with melting point:
- compound: "Cc1ccc(Sc2cncc3sc(C=NOCc4ccccc4)cc23)cc1"
  measure-name: "melting point"
  observed-result: "127 to 133 °C"
- compound: "Nc1noc(-c2cc3c(Oc4ccc(Cl)cc4)cncc3s2)n1"
  measure-name: "melting point"
  observed-result: "217 to 219 °C"
- compound: "CC(=O)c1cc2c(Sc3ccc(C)cc3)cncc2s1"
  measure-name: "melting point"
  observed-result: "134 to 138 °C"
- compound: "NC(=O)c1cc2c(Oc3ccc(F)c(F)c3F)cncc2s1"
  measure-name: "melting point"
  observed-result: "218 to 219 °C"
- compound: "CC(=NO)c1cc2c(Sc3ccc(C)cc3)cncc2s1"
  measure-name: "melting point"
  observed-result: "209 to 213 °C"

Entry N#CN=C(N)c1cc2c(Oc3ccc(Cl)cc3)cncc2s1 : reported melting point = ?
265 to 268 °C

Request the reported melting point associated with Nc1ccc(-c2cc3c(Oc4ccc(Cl)cc4)cncc3s2)cc1
178 to 182 °C

Param item = Clc1ccc(Oc2cncc3sc(C4=NCCN4)cc23)cc1 ; retrieve measured melting point.
154 to 155 °C

====

tested on: ICAM-1; assay: CAM ELISA: ICAM-1 expression on TNF-stimulated HUVECs; format: cell-based; details: Homo sapiens, Endothelial cell, 1 μM compound; primary human umbilical vein endothelial cells; compound 24 hours, then TNF 5 ng/mL 6 hours
measure-name: inhibition at 1 µM (%)
Number only, in %; omit the unit.

Examples from the recorded data:
- molecule: "CNC(=O)c1cc2c(Oc3ccc(OC(F)(F)F)cc3)cncc2s1"
  observed-result: 62
- molecule: "CNC(=O)c1cc2c(Oc3ccc(C(C)=O)cc3)cncc2s1"
  observed-result: 68
- molecule: "COc1ccccc1-c1cc2c(Oc3ccc(Cl)cc3)cncc2s1"
  observed-result: 29
- molecule: "NC(=O)c1cc2c(Oc3ccc(Cl)cc3)c(Cl)ncc2s1"
  observed-result: 33
- molecule: "CCOCCOCCOCC(F)(F)c1ccc(Oc2cncc3sc(C(=O)NC)cc23)cc1"
  observed-result: 53
- molecule: "Clc1ccc(Oc2cncc3sc(-c4nnn[nH]4)cc23)cc1 [Example 282A]"
  observed-result: 15
- molecule: "Nc1nnc(-c2cc3c(Oc4ccc(C(F)(F)F)cc4)cncc3s2)o1"
  observed-result: 77
- molecule: "FC(F)(F)c1nc(-c2cc3c(Oc4ccc(Cl)cc4)cncc3s2)no1"
  observed-result: 68
- molecule: "Cc1nnc(-c2cc3c(Oc4ccc(C(F)(F)F)cc4)cncc3s2)o1"
  observed-result: 53
- molecule: "Cn1c(N)nnc1-c1cc2c(Oc3ccc(Cl)cc3)cncc2s1"
  observed-result: 57

// switching to the query molecule
# lookup: inhibition at 1 µM of NC(=O)c1cc2c(C=Cc3ccccc3)cncc2s1
62
